assay_name: Stability in human fecal homogenate
Type: in vitro ADME
condition_context: 20% fecal homogenate (supernatant), pH 6.8, 20% human fecal homogenate, anaerobic, 37° C., read-out: t½: Human Feces anaerobic (converted)
reported_metric: half-life at 20 μM

Value of measured half-life at 20 μM for the entry CC(=O)NCCCC[C@@H]1NC(=O)[C@H](Cc2c[nH]c3c(C)cccc23)NC(=O)[C@H]([C@@H](C)O)NC(=O)[C@H](CC(N)=O)NC(=O)[C@@H](NC(C)=O)C(C)(C)SSC(C)(C)[C@@H](C(=O)N[C@@H](Cc2ccc(OCCN)cc2)C(=O)N[C@@H](Cc2ccc3ccccc3c2)C(=O)N[C@@](C)(CCCCN)C(=O)N[C@@H](CCCCNC(=O)CC(F)(F)F)C(=O)N[C@@H](CC(N)=O)C(=O)N[C@H](CC(C)C)C(N)=O)NC1=O : > 24 h

// sample CC(=O)NCCCC[C@H](NC(=O)[C@](C)(CCCCN)NC(=O)[C@H](Cc1ccc2ccccc2c1)NC(=O)[C@H](Cc1ccc(OCCN)cc1)NC(=O)[C@H]1NC(=O)[C@H](CCCCNC(=O)C2CCCCC2)NC(=O)[C@H](Cc2c[nH]c3c(C)cccc23)NC(=O)[C@H]([C@@H](C)O)NC(=O)[C@H](CC(N)=O)NC(=O)[C@@H](NC(C)=O)C(C)(C)SSC1(C)C)C(=O)N[C@@H](CC(N)=O)C(=O)N[C@H](CC(C)C)C(N)=O , its half-life at 20 μM was > 24 h

The recorded half-life at 20 μM for CCCCCCCC(=O)NCCCC[C@@H]1NC(=O)[C@H](Cc2c[nH]c3c(C)cccc23)NC(=O)[C@H]([C@@H](C)O)NC(=O)[C@H](CC(N)=O)NC(=O)[C@@H](NC(C)=O)C(C)(C)SSC(C)(C)[C@@H](C(=O)N[C@@H](Cc2ccc(OCCN)cc2)C(=O)N[C@@H](Cc2ccc3ccccc3c2)C(=O)N[C@@](C)(CCCCN)C(=O)N[C@@H](CCCCNC(C)=O)C(=O)N[C@@H](CC(N)=O)C(=O)N[C@H](CC(C)C)C(N)=O)NC1=O is > 24 h

Reference source for all entries: patent US11041000B2
